Taken from paper PMC8615111.

assay: Cyclic voltammetry of the compounds on graphite-based SPE; assay type: physicochemical; conditions: 1st oxidation peak; CV, 0.1 M HClO4, graphite-based SPE
Label rule met when Iox (μA) is at or above 10 μA; otherwise label rule not met.

(Q) Evaluate Br.Oc1ccc(/C=N/Nc2nc(-c3ccccc3)cs2)c(O)c1 [Compound 6b] : Iox (μA) at minimum 10 μA?
(A) rule not met

(Q) Does the compound C/C(=N\Nc1nc(-c2ccc(O)c(O)c2)cs1)c1ccc(O)cc1O.Cl [Compound 8a] have recorded Iox (μA) that is 10 μA or more?
(A) rule met

(Q) Hi, just wondering whether Br.NC(=O)c1cc(-c2csc(N/N=C/c3ccc(O)cc3O)n2)ccc1O [Compound 7b] shows Iox (μA) of 10 μA or higher.
(A) rule met

(Q) Is reported Iox (μA) greater than or equal to 10 μA here: Br.C/C(=N\Nc1nc(-c2ccccc2)cs1)c1ccc(O)cc1O [Compound 6a]
(A) rule met

(Q) # check: Iox (μA) of Br.C/C(=N\Nc1nc(-c2ccc(O)c(C(N)=O)c2)cs1)c1ccc(O)cc1O [Compound 7a] is greater than or equal to 10 μA
(A) rule met

We now examine a further compound.
(Q) Would you say Cl.Oc1ccc(/C=N/Nc2nc(-c3ccc(O)c(O)c3)cs2)c(O)c1 [Compound 8b] shows Iox (μA) at minimum 10 μA?
(A) rule not met
